Biological target: D1 -dopamine (Bos taurus)
Construct: Membranes derived from bovine striatum (for assaying dopamine receptors)
Sequence (Q95136 whole entry): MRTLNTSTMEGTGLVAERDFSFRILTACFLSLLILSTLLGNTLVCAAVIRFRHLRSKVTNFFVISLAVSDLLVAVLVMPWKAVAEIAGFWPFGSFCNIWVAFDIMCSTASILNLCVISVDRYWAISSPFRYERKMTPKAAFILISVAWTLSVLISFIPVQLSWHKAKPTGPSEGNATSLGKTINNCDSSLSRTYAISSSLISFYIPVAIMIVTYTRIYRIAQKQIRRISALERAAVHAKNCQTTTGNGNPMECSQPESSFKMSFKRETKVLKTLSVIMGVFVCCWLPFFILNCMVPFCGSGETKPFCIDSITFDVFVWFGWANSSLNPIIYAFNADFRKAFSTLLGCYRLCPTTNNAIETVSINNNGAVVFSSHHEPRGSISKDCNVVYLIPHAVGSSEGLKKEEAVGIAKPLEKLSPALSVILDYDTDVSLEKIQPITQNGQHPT
Assay: Radioligand binding (displacement of 3H-SCH23390), bovine striatal membranes
Details: bovine striatum membranes
Description: The selectivity of 2-[N-3-fluoropropyl-N-2-(2 thienyl)ethylamine]-5-hydroxytetralin has been investigated using radioligand binding assays to determine the binding affinity at different receptor types, namely D1 and D2 dopamine and α-adrenergicreceptor sites. Membranes derived from bovine striatum (for assaying dopamine receptors) and rat cerebral cortex (for assaying α-adrenergic receptors) were prepared as follows. The tissue was homogenized using a tissue disrupter and centrifuged. […]
Measurement Kind: IC50

[
  {
    "Compound": "Oc1cccc2c1CCC(N(CCCF)CCc1cccs1)C2 (stereo not shown)",
    "Assay Target": "D1 -dopamine (Bos taurus)",
    "Measurement Kind": "IC50",
    "Assay Result": "> 10 µM"
  }
]

----------
Target: α-adrenergic
Test: Radioligand binding (displacement of 3H-prazosin), rat cerebral cortex membranes
Measurement Kind: IC50 (µM)

[
  {
    "Compound": "Oc1cccc2c1CCC(N(CCCF)CCc1cccs1)C2 (stereo not shown)",
    "Assay Result": 5.7
  }
]
